Cited source: PubChem BioAssay (NCI)

- Tested on: MDA-MB-231 breast
- protocol details: NCI-60 one-dose screen, 48 h (100 = growth as untreated, 0 = no growth, -100 = all killed)
- test parameters: 10 µM unless noted
This is part of a sample that, as a whole, favours compounds with a hit. Of some 83,000 tested, about 20% had one in any assay.
quantity measured: growth (%)
Your answer should be a plain number; it is taken to be in %.

Here are 3 compounds together with their reported answers.
Cc1cc(CC(=O)NCCO)n(CCO)c(=O)c1 | 109
CC(=O)NCNC(C)=O | 118
CCOC(OCC)C(=O)c1ccccc1 | 111

Now for a further compound.
Exercise: Fill in the blank: the reported growth of CCCCn1cnc2c(=O)[nH]cnc21 is ____.
Key: 98.4
